# System Under Test: hMeprin β (Homo sapiens, UniProt Q16820)
# Sequence (Q16820 62-701): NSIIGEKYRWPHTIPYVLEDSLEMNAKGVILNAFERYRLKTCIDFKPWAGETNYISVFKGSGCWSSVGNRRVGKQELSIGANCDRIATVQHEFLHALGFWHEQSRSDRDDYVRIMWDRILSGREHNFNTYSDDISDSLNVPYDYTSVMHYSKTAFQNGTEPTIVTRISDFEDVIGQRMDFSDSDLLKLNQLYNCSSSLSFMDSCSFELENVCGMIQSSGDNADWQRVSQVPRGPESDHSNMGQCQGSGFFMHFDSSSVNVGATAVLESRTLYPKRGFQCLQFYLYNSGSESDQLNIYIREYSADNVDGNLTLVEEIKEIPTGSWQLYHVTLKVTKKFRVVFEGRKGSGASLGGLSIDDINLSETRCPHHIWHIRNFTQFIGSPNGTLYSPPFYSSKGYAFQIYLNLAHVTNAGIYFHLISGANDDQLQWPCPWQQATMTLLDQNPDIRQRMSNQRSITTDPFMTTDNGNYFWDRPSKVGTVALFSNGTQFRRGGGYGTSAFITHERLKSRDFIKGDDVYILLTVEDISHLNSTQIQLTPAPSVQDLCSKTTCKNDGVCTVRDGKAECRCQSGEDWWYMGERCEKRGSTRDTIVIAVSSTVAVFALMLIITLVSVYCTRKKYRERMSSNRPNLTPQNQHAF
# Test Protocol: Enzymatic assay, quenched peptide substrate cleavage, method A
# Format: biochemical
# Recorded Conditions: geometric mean (geometric SD factor in parentheses), read-out: Meprin beta IC50
# Method: The determination of enzymatic activity was based on the cleavage of internally quenched peptide substrates. A typical assay of 250 μl total volume measured in black 96 well plates consisted of 100 μl buffer, 50 μl enzyme at a final concentration of 5e-8 M to 2e-10 M, 50 μl substrate (0.15 to 80 μM, in buffer, 0.5% DMSO) and 50 μl inhibitor solution (in buffer, 1% DMSO). […] Based on method B Ki^(app) values were determined using Morrison's equation. […]
Can you tell me IC50 for the items I'm about to list?
Write the numeric value and append its unit.

Past entries and their recorded results:
[[record]]
given_smiles = "O=C(Cn1c(-c2ccccc2)ccc1-c1ccccc1)NO"
result = "4.32 µM"

[[record]]
given_smiles = "O=C(Cc1c2ccccc2nn1-c1ccccc1)NO"
result = "3.37 µM"

[[record]]
given_smiles = "O=C(Cc1c(-c2ccccc2)nn(-c2cccc(C(=O)O)c2)c1-c1ccccc1)NO"
result = "0.1 µM"

[[record]]
given_smiles = "O=C(CCc1c(-c2ccccc2)noc1-c1ccccc1)NO"
result = "13.7 µM"


// returns reported IC50 for input O=C(CCn1c(-c2ccccc2)cc2ccccc21)NO
13.4 µM

Reference source: patent US20250388544A1
